assay: Confirmation screen for delayed death inhibitors of the malarial parasite plastid, 96 hour incubation; further: nearly all actives have a fitted effect of over 60% in size; settings: P. falciparum luciferase growth in erythrocytes; series mostly up to 28.7 µM
Screen size: about 2,300 compounds; about 1,400 (61%) were called active. Another 29% or so got no clear call; they are omitted. The call rests on the fitted dose curve; in most records, active means well fitted inhibition curve with a large enough effect; inconclusive means small, poorly fitted or top-dose-only effect, or effect the other way; inactive means no such curve, though single readings can be large or run the other way. The set was probably picked from earlier hits. Some of the results follow.
Respond with a class label; see T (active), F (inactive)

// query Write down the call the test reported for this molecule. Item: CCC(=O)N1c2ccccc2NC2=C(C(=O)CC(c3ccco3)C2)C1c1ccco1 (stereo unspecified)
// result T

// query What about CN(C)c1ccc(CN(C(=O)c2ccccc2Br)C2CCS(=O)(=O)C2)cc1 (stereo unspecified) ?
// result T

// query What about Fc1ccc(CNc2ccc(N3CCN(Cc4ccccc4)CC3)cc2)cc1 ?
// result T

// query What about COc1ccc(C(=S)N2CCN(c3ccccc3C)CC2)cc1 ?
// result T

// query What about O=C(Nc1ccc(Cl)cc1)c1ccc(CN2CCc3ccccc3C2)cc1 ?
// result T

// query What about Cc1cccc(C)c1OCc1cc(C(=O)N(C)Cc2nc3ccccc3[nH]2)no1 ?
// result T

// query What about CC(C)C(=O)N1CCN(c2ccc(NC(=O)c3ccco3)cc2Cl)CC1 ?
// result T

// query What about O=C(Nc1ccc2[nH]ncc2c1)c1ccc(F)cc1 ?
// result F

// query What about COc1ccc(C)cc1S(=O)(=O)N1CCN(S(=O)(=O)c2cc(C(=O)O)ccc2C)CC1 ?
// result T

// query What about CCN(CC)c1ccc(NC(=S)NC(=O)C2CCC2)cc1 ?
// result T

// query What about Nc1nnnn1/N=C/C(Br)=C/c1ccccc1 ?
// result T
